Hey, just so you know, these numbers are from PubChem BioAssay (NCI).

List of TGI values.
- Tested on: HOP-62 NSCLC
- Method Description: NCI tumour cell line growth inhibition, 48 h

Compound: Cc1ccc(C(CC(=O)c2ccccc2)C(C(=O)c2ccccc2)C(c2ccc(C)cc2)C2C(=O)NC(=S)NC2=O)cc1 (stereo not drawn)
Test Target: HOP-62 NSCLC
TGI: > 50 µM

Compound: O=C(CC(=O)c1cccc([N+](=O)[O-])c1)C(=O)Nc1nc([N+](=O)[O-])cs1
Test Target: HOP-62 NSCLC
TGI: > 100 µM

Compound: CC(C)NCCCCCNc1cc(O)cc2cccnc12
Test Target: HOP-62 NSCLC
TGI: > 100 µM

Need TGI of `CC(=O)O[C@H]1CC[C@@]2(C)C(=CC[C@H]3[C@@H]4C/C(=C\c5ccncc5)[C@H](OC(C)=O)[C@@]4(C)CC[C@@H]32)C1` , thanks.
17.7 µM

Entry to check: `COCN1C(=O)[C@@H]2CCCN2C(=O)c2cc(Cl)ccc21`
> 100 µM

Entry to check: `CCCN(CCC)c1ccc(/C=N/NC(=O)c2cccnc2)cc1`
> 100 µM

Entry to check: `Cc1ccc(S(=O)(=O)c2ccsc2NC(=O)c2ccccc2)cc1`
45 µM

Entry to check: `Cc1nc2ccc(S(=O)(=O)Nc3ccccc3Cl)cc2c(=O)n1NC(=O)CNc1ccccc1Cl`
> 100 µM

Entry to check: `O=[N+]([O-])c1ccc(NN=C2c3ccccc3Cc3ccccc32)c([N+](=O)[O-])c1`
> 100 µM

Entry to check: Cc1cn(CCCCOC(=O)NC(CCCNC(N)=O)C(=O)O)c(=O)[nH]c1=O (stereo not drawn)
> 100 µM
